The reported numbers originate from patent US10988466B2.

Target: SHP2 (Homo sapiens, UniProt Q06124);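 further: compounds preincubated 30 min at room temperature in the assay mixture, activity referenced to a 0.5% (v/v) DMSO control taken as 100%, run in triplicate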
Test: biochemical
Settings: read-out: SHP2 inhibition (%)@0.1 μM
Assay Endpoint: inhibition at 0.1 µM (%)

Nc1cccc(Sc2ncc(N3CCC4(CC3)Cc3ncccc3C4N)nc2N)c1Cl (centres unmarked); 81
Nc1nc(N2CCC3(CC2)Cc2nc(Cl)ccc2[C@H]3N)cnc1Sc1ccnc(N)c1Cl; 86

(a) Nc1cnccc1Sc1cnc(N2CCC3(CC2)Cc2ncccc2[C@H]3N)cn1
(b) N#Cc1cc2c(cc1F)CC1(CCN(c3cnc(Sc4ccnc(N)c4Cl)c(N)n3)CC1)[C@@H]2N
Of a versus b , which is the one with smaller reported inhibition at 0.1 µM? Let me know the label of the one you choose.
b
(b: 49%, a: 71%)

(1) Nc1nc(N2CCC3(CC2)Cc2c(Br)cccc2[C@H]3N)cnc1Sc1ccnc(N)c1Cl
(2) Nc1nc(N2CCC3(CC2)Cc2ccccc2[C@@H]3N)cnc1Sc1ccnc(N)c1Cl
Higher inhibition at 0.1 µM between 1 and 2 ? Give the chosen item's label as your response.
1
(1: 77%, 2: 35%)
